assay: clinical; conditions: human, plasma, po, 50 mg
Metric name: AUC(0-inf)
Answer shape: numeric part, then the unit.

Per the records, this molecule ( N#C[C@@H]1CCCN1C(=O)CNC12CC3CC(CC(O)(C3)C1)C2 ) has AUC(0-inf) equal to 1030 ng·h/mL
